measurement-label: melting point

Here are 2 compounds together with their reported answers.
{"compound": "Cc1ccc2sc3cc(C(=O)Cl)ccc3c2c1", "melting point": "127 to 128 °C"}
{"compound": "CN(C)Cc1ccc(CSCCNC2=NS(=O)C(S(C)(=O)=O)=C2N)o1 (centres undefined)", "melting point": "134 to 137 °C"}

For CC12CCC(CC1=C=C1C=CC(Nc3nc(Cl)nc(Cl)n3)=CC1)C2(C)C (centres undefined) , what is its reported melting point?
238 °C

For COc1ccc(CCOc2c(-c3ccc(S(C)(=O)=O)cc3)cnn(CC(F)(F)F)c2=O)cc1OC , what is its reported melting point?
133 to 134 °C

For CC(c1oc2ccccc2c(=O)c1-c1cccc(F)c1)n1nc(-c2ccc(S(C)(=O)=O)cc2)c2c(N)ncnc21 (centres undefined) , what is its reported melting point?
259 to 262 °C

* * *

Known melting point of a selection of compounds

{"compound": "O=C(O)c1ccc(C=Cc2cc(=O)c3cc(Br)ccc3o2)cc1", "measurement-label": "melting point", "reported-result": "359 to 362 °C"}
{"compound": "OCC(O)Cc1cc(Cl)c2ccccc2c1OCc1ccccc1 (stereo not given)", "measurement-label": "melting point", "reported-result": "69 to 71 °C"}
{"compound": "CC1CC(=O)c2cc(Cl)c(F)cc2O1 (stereo not given)", "measurement-label": "melting point", "reported-result": "88 to 90 °C"}
{"compound": "NNc1nnc(C(=O)C(F)(F)F)nc1-c1ccccc1", "measurement-label": "melting point", "reported-result": "193 to 194 °C"}
{"compound": "CC(C)n1nc(-c2cc(C(C)(C)C)c(O)c(C(C)(C)C)c2)c2cccnc21", "measurement-label": "melting point", "reported-result": "147 °C"}

For Nc1nc(Cl)c2c(n1)CCCS2 , what is its reported melting point?
196 to 198 °C

For COC(=O)c1nc2cc(Cl)c(Cl)c(Cl)c2c(O)c1C(=O)OC , what is its reported melting point?
227 to 228 °C

For CCc1nc(N)nc2c1nc(NC)n2C1CC(N=[N+]=[N-])C(CO)O1 (stereo not given) , what is its reported melting point?
38 to 43 °C

For CC(C)=C[C@@H](OC(=O)C=C(C)N[C@@H](C)c1cccc2ccccc12)C(Cl)(Cl)Cl , what is its reported melting point?
209 to 210 °C

For COc1cc2c(Nc3ccc(Cl)cc3F)ncnc2cc1OCCN(C)C(=O)OC(C)(C)C , what is its reported melting point?
194 to 196 °C

* * *

Known melting point of a selection of compounds

Here are 3 compounds together with their reported answers.
{"compound": "Cc1cc2c(cc1S(=O)(=O)N1CCOCC1)S(=O)(=O)NC(C1CCCCC1)N2 (stereo unspecified)", "measurement-label": "melting point", "reported-result": "268 to 271 °C"}
{"compound": "CSc1ccc2c(n1)C(c1ccccc1)=[N+]([O-])Cc1nncn1-2", "measurement-label": "melting point", "reported-result": "190 to 192 °C"}
{"compound": "COC(=O)Cc1ccc(C(=O)CN2CCN(c3ccncc3)CC2)cc1", "measurement-label": "melting point", "reported-result": "127 to 129 °C"}

For CS(=O)(=O)Oc1cnc2ccccc2c1O , what is its reported melting point?
224 °C

For CCCC(=O)c1ccc2[nH]cc3c2c1CC(N(CCC)CCC)C3 (stereo unspecified) , what is its reported melting point?
151 to 153 °C

For N#Cc1ncn2c1[C@@H]1CCN1C(=O)c1sccc1-2 , what is its reported melting point?
211 to 213 °C

* * *

Known melting point of a selection of compounds

Here are 3 compounds together with their reported answers.
{"compound": "COC(=O)Cc1cc(Br)c(Sc2ccc(OC)c(C(C)C)c2)c(Br)c1", "melting point": "73 to 76 °C"}
{"compound": "CN(C)C(=O)Cn1nnnc1S", "melting point": "204 to 205 °C"}
{"compound": "CCCCc1ccc(OC)c(-c2csc(NC(=O)c3ccc(C(=O)N4CCC(N5CCC(NS(C)(=O)=O)C5)CC4)cc3)n2)c1 (stereo not given)", "melting point": "125 °C"}

For O=S(=O)(Cc1cccs1)c1ncc(Br)cn1 , what is its reported melting point?
124 to 126 °C

For Cc1ccc2c(c1)c(=O)n1nc(C(=O)O)cc1n2C , what is its reported melting point?
269 °C

* * *

measurement-label: melting point (°C)
Output spec: scalar in °C, unitless text.

{"smiles-repr": "NC(=O)c1[nH]cnc1OC(=O)C=Cc1cccc([N+](=O)[O-])c1", "readout-units": "°C", "melting point": 197}

// next entry
For CNC(=O)N=c1ccc(C)cn1-c1cccc(C(F)(F)F)c1 , what is its reported melting point?
114

* * *

Known melting point of a selection of compounds

{"compound": "O=c1c2ccccc2sn1-c1ccccc1", "reported-result": "140 to 141 °C"}
{"compound": "CCCCOc1cc(-n2c(=O)cc(C(F)(F)F)n(C)c2=O)c(F)cc1Br", "reported-result": "73 °C"}
{"compound": "CCCc1nc2c(N)nc3cc(Br)ccc3c2n1NC(C)C", "reported-result": "226 to 228 °C"}
{"compound": "CC(CCO)C(c1cc(F)ccc1F)S(=O)(=O)c1ccc(Cl)cc1 (stereo not given)", "reported-result": "65 to 67 °C"}
{"compound": "CC(C)(C)OC(=O)CC(Cc1ccccc1)NC(=O)C1Cc2ccccc2N1S(=O)(=O)c1ccc(-c2ccc(F)cc2)cc1 (stereo not given)", "reported-result": "67 to 73 °C"}
{"compound": "Cc1ccc(OC(C)(C)C=O)c(C#N)c1", "reported-result": "60 to 64 °C"}
{"compound": "COC(=O)c1cc2c(nc1C)C(COC(=O)Oc1ccc([N+](=O)[O-])cc1)CCCC2 (stereo not given)", "reported-result": "116 to 117 °C"}
{"compound": "Cn1cc(-c2ccnnc2)ccc1=O", "reported-result": "> 250 °C"}
{"compound": "C#CCOCCn1c(CN2CCCN(C)CC2)nc2ccccc21", "reported-result": "133 to 136 °C"}

For CCCn1nc(-c2ccncc2)nc1-c1ccncc1 , what is its reported melting point?
88 to 89 °C

* * *

Known melting point of a selection of compounds

Here are 6 compounds together with their reported answers.
{"compound": "CCCNC(=O)C1(CCCc2ccccc2)c2ccccc2Sc2ccccc21", "reported-result": "130 to 131 °C"}
{"compound": "CC(C)(C)COc1c(-c2ccc(S(C)(=O)=O)cc2)cnn(CC(F)(F)F)c1=O", "reported-result": "145 to 146 °C"}
{"compound": "CN1C(=O)Cc2cc(C(=O)CN3CCN(c4ccccc4)CC3)cnc21", "reported-result": "136 to 137 °C"}
{"compound": "CCCCc1cn2ccccc2c1S(=O)(=O)c1ccc(OS(=O)(=O)c2ccc(C)cc2)cc1", "reported-result": "145 °C"}
{"compound": "CCOC(=O)CC1c2cc(OC)ccc2N(c2nc(Cl)nc3ccccc23)C1C (stereo unspecified)", "reported-result": "111 to 112 °C"}
{"compound": "COc1ccc(C(=O)Nc2ncc(Cl)cc2Cl)c2c1oc1ccccc12", "reported-result": "302 °C"}

For COc1ccc(Cl)c2c1CCC(CCl)=C2 , what is its reported melting point?
68 to 69.5 °C

For CN1N=C2C(=Cc3ccccc3)CNCC2C1c1ccccc1 (stereo unspecified) , what is its reported melting point?
115 to 117 °C

For CCOC(=O)c1cnc2nn(C)cc2c1O , what is its reported melting point?
222 to 224 °C

For CN(C)Cc1ccc(COCC(N)=O)s1 , what is its reported melting point?
86.5 to 95 °C

For O=C1CNc2c(Cl)cccc2N1 , what is its reported melting point?
191 to 193 °C

* * *

measurement-label: melting point

Here are 4 compounds together with their reported answers.
{"compound": "CN1C(=O)C(C)(C)c2ccc(C(=O)Nc3ccccc3)cc21", "melting point": "184 to 186 °C"}
{"compound": "CCOC(=O)c1cc(-c2ccccc2)n(-c2cccc(Cl)c2)c1C", "melting point": "99.6 to 100 °C"}
{"compound": "CC(=O)Nc1ccccc1OCCCO", "melting point": "78 to 80 °C"}
{"compound": "O=C(O)c1ccc(-c2nc(-c3c(F)c(F)c(F)c(F)c3F)cs2)cc1", "melting point": "273 to 274 °C"}

For Cc1cc(C2(O)C(=O)N(Cc3ccccc3)c3ccccc32)cc(C)c1O[Si](C)(C)C(C)(C)C (stereo unspecified) , what is its reported melting point?
147 °C

For Clc1ccc2[nH]c3c(c2c1)CN(CCc1ccccn1)CC3 , what is its reported melting point?
198 to 200 °C

For Cc1c(CC(=O)N[C@@H](CO)C(=O)O)cc(-c2ccc(S(C)(=O)=O)cc2)n1-c1ccc(F)cc1 , what is its reported melting point?
120 °C
